- Test system: Canis familiaris
- PROCEDURE DETAILS: Diuretic effect in mongrel dog assessed as urinary excretion of water at 1 mg/kg, iv after 3 hrs (reference value: 0.93 +/- 0.35 ml/kg)
- Type: functional
- TEST CONDITIONS: Canis lupus familiaris, Urine
The source made the active and inactive calls. The calls are words filed in the database; no cut-off is given here.
Respond only with the outcome that fits, drawn from 1 (yes) for active, 0 (no) for inactive

These solved cases illustrate the format of a correct answer.
{"SMILES INPUT": "O=CNc1cc(C(=O)O)cc(SCc2ccccc2)c1-c1ccccc1", "CLASS NAME": "0 (no)"}
{"SMILES INPUT": "CN(C)c1cc(C(=O)O)cc(OCc2ccccc2)c1C(=O)c1ccccc1", "CLASS NAME": "0 (no)"}
{"SMILES INPUT": "CN(C=O)c1cc(C(=O)O)cc(OCc2ccccc2)c1C(=O)c1ccccc1", "CLASS NAME": "1 (yes)"}
{"SMILES INPUT": "O=C(CCl)Nc1cc(C(=O)O)cc(OCc2ccccc2)c1C(=O)c1ccccc1", "CLASS NAME": "0 (no)"}
{"SMILES INPUT": "CNc1cc(C(=O)O)cc(OCc2ccccc2)c1C(=O)c1ccccc1", "CLASS NAME": "0 (no)"}

What classification did O=CNc1cc(C(=O)O)cc(SCc2ccccc2)c1Oc1ccccc1 end up with in this test?
0 (no)

What classification did CCN(C=O)c1cc(C(=O)O)cc(OCc2ccccc2)c1C(=O)c1ccccc1 end up with in this test?
0 (no)

What classification did O=C(O)c1cc(NC(=O)c2ccccc2)c(C(=O)c2ccccc2)c(OCc2ccccc2)c1 end up with in this test?
0 (no)

What classification did C=CCSc1cc(C(=O)O)cc(NC=O)c1C(=O)c1ccccc1 end up with in this test?
0 (no)

What classification did CCNc1cc(C(=O)O)cc(OCc2ccccc2)c1C(=O)c1ccccc1 end up with in this test?
0 (no)

---

- System: Canis familiaris
- PROCEDURE DETAILS: Diuretic effect in mongrel dog assessed as urinary excretion of water at 0.1 mg/kg, iv after 3 hrs (reference value: 0.93 +/- 0.35 ml/kg)
- Assay type: functional, Canis lupus familiaris, Urine
MEASUREMENT NAME: Activity (mL/kg)
API: value field is a number in mL/kg; no unit string.

{"MOLECULE": "NS(=O)(=O)c1cc(C(=O)O)cc(OCc2ccccc2)c1C(=O)c1ccccc1", "UNIT ABBREV": "mL/kg", "Activity": 12}
{"MOLECULE": "CCCCOc1cc(C(=O)O)cc(NC=O)c1C(=O)c1ccccc1", "UNIT ABBREV": "mL/kg", "Activity": 6}
{"MOLECULE": "O=CNc1cc(C(=O)O)cc(OCc2ccccc2)c1C(=O)c1ccccc1", "UNIT ABBREV": "mL/kg", "Activity": 9}

Now let's try a different one.
What measured Activity goes with CCCCNc1cc(C(=O)O)cc(S(N)(=O)=O)c1Oc1ccccc1 [BUMETANIDE] ?
26
